Test system: MDA-MB-435 melanoma
TEST_SUMMARY: NCI-60 one-dose screen, 48 h
CONDITION_LABEL: 10 µM unless noted
Experimental: Growth inhibition of the MDA-MB-435 human Melanoma tumor cell line is measured as a screen for anti-cancer activity. Cells are grown in 96 well plates and exposed to the test compound for 48 hours. Compounds are tested at a single concentration, which is 10^-5 M for most compounds. The reported endpoint is percent growth (GI% or GIPRCNT), where numbers from 0 - 100% represent growth inhibition, and numbers from -100% - 0 represent cell death. […]
About 83,000 compounds went through this panel and 20% of them were active in at least one assay; those are over-represented in the sample as a whole. Activity calls are given as the source filed them. How the source made its calls: active means growth percent below 10; inactive means the rest.
Outcome codes: 1.0 (active), 0.0 (inactive)

>>> df
                                    compound  classification
 0  CCN1CCN(/C(=N\c2sc(-c3ccccc3)nc2-c2ccccc2)c2ccccc2)CC1             0.0
 1  O=C1Nc2ccc(Cl)cc2/C1=C/c1ccc(OCC(=O)c2ccc(Br)cc2)cc1             0.0
 2  NC(=O)c1c(NC(=O)c2ccc(C3CCCCC3)cc2)sc2c1CCC(=O)C2             0.0
 3  Cc1cc2nc3c4cc(Cl)ccc4n(CC(=S)NCCN(C)C)c3nc2cc1C             1.0
 4  COc1ccc(NC2=C(Cl)C(=O)C(C)=C(C)C2=O)cc1OC             0.0
 5       C/C(=N\NC(N)=O)c1c(O)sc(=O)[nH]c1=O             0.0
 6  COc1ccc(/C=C2\SC(=Nc3cc(C)[nH]n3)NC2=O)cc1             0.0
 7  C/C(=C(/c1ccc(Cl)cc1)c1ccc(OCCN)cc1)c1ccc(C)cc1             0.0
 8  Clc1ccc2c(NCCCn3ccnc3)c3oc4ccccc4c3nc2c1             0.0
 9  Clc1ccc2c(NCCCN3CCOCC3)c3oc4ccccc4c3nc2c1             0.0
10  CCOC(=O)c1c(NC(=O)c2cccc(C(F)(F)F)c2)sc2cc(O)ccc12             0.0
11  Cn1c(SCC(=O)Nc2ccc(-c3nc4ccc([N+](=O)[O-])cc4[nH]3)cc2)nc2ccccc2c1=O             0.0
12  COc1cc(OC)c(C2C(Cl)C(=O)N2Nc2ncnc3ccccc23)cc1OC (centres undefined)             0.0
13  COc1cc2nc(-c3ccc(Cl)cc3)cc(OCCCNCC3CCCO3)c2cc1OC (centres undefined)             0.0
14  CC(=NNc1ncnc2ccccc12)c1ccc(S(C)(=O)=O)cc1             0.0
15  COc1ccc(-n2c(SCC(=O)Nc3ccc(-c4nc5ccccc5[nH]4)cc3)nc3ccccc3c2=O)cc1             1.0
16  CCOC(=O)c1sc(NCC(=O)Nc2cccc([N+](=O)[O-])c2)c(C(=O)OCC)c1C             1.0
17  Fc1ccc(-c2nc(C(Cl)Cl)nc3cc(-c4ccccc4)nn23)cc1             1.0
18  N=C1CC(=O)NN1C(=O)CSc1nc2sc3c(c2c(=O)n1-c1ccc(Cl)cc1)CCCC3             0.0
19  N[C@@H](Cc1cn(-c2ccnc3ccccc23)nn1)C(=O)O             0.0
20  CCN1C(=S)N(c2ccccc2)C2NC(=O)N(/N=C/C=C/c3ccccc3OC)C21 (centres undefined)             0.0
21  COc1cc(/C=C/C(=O)c2ccccc2)ccc1Oc1nc(NCCO)nc(N2CCOCC2)n1             0.0
22       CN(C)S(=O)(=O)c1oc(-c2ccccc2)nc1C#N             0.0
23  COc1ccc(/C=N/NC(=O)c2[nH]c3ccc(Br)cc3c2-c2ccccc2)o1             1.0
